# subject-of-test: pEGFR (Tyr1068) in PC-9 cells (Ex19Del) (Homo sapiens (Human), UniProt P00533, DEL746-750)
# Sequence (P00533 other isoform, or with tags, fused parts or gaps del 746-750): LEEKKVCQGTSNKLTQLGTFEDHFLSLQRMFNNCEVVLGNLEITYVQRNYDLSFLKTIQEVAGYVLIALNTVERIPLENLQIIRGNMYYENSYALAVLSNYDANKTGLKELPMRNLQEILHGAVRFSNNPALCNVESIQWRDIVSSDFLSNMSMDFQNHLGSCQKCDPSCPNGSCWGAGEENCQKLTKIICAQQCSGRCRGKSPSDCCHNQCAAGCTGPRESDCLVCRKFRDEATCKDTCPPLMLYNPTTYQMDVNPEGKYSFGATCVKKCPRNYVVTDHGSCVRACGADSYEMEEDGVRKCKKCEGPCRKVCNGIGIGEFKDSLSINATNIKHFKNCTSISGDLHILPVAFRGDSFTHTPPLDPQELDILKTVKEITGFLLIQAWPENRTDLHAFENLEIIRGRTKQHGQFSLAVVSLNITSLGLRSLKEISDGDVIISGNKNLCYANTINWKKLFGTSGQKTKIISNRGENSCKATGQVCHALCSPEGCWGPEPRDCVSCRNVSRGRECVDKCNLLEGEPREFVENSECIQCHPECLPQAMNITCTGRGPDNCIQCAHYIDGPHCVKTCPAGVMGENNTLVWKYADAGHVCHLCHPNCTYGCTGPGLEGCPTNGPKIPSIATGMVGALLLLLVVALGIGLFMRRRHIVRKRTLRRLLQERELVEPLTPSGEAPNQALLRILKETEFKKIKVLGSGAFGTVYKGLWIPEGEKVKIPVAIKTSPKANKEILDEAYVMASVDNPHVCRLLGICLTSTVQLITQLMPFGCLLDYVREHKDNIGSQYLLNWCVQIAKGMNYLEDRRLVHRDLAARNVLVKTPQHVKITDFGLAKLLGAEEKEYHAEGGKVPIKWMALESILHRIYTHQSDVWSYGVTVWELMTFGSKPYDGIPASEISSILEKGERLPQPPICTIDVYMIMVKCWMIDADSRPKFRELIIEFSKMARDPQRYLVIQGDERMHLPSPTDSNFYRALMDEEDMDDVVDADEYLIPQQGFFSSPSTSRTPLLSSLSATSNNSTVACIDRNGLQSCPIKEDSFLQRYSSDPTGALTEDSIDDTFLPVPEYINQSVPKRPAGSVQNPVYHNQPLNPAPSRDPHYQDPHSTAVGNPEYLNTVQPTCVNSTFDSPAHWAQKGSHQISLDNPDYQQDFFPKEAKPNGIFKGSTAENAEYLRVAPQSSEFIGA
# experiment-description: PC-9 pEGFR AlphaLISA assay
# assay-conditions: 4 hours incubation, p-EGFR (Tyr1068) AlphaLISA, read-out: Ext pEGFR_PC-9 Ex19Del IC50
Each entry below carries its recorded IC50.
Please reply with the bare figure in nM and do not write the unit itself.

Field: example entries. Status: answers known.
{"columns": ["molecule", "IC50 / nM"],
 "data": [
  ["COc1cc2ncnc(-c3cn(CC(F)F)nc3-c3ccccc3)c2cc1NC(=O)c1scnc1C", 0.6],
  ["COc1cc2ncnc(-c3cn(C)nc3-c3ccccc3)c2nc1O[C@H](C)c1nnc(C)s1 (single isomer, unassigned)", 6.3],
  ["COc1cc2ncnc(-c3cn(C)nc3-c3ccccc3)c2nc1O[C@H](C)c1cnnn1C", 9.2],
  ["CCOc1cc2ncnc(-c3cn(C)nc3-c3ccc(F)cc3)c2nc1NC(=O)[C@@]12COC[C@@H]1C2 (single isomer, unassigned)", 0.7]
]}

Reported IC50 of COc1cc2ncnc(-c3cn(C)nc3-c3ccccc3)c2nc1NC(=O)C1(F)CCN(C)C1 (stereo not drawn) : 10.5

The reported IC50 of the molecule "COc1cc2ncnc(-c3cn(C)nc3-c3ccccc3)c2cc1OC(=O)N1[C@@H](C)CN(C)C[C@@H]1C" was 9.6

----------
The entries below are paired with their reported IC50.
# subject-of-test: EGFR (d746-750) (Homo sapiens (Human), UniProt P00533, DEL746-750)
# Sequence (P00533 other isoform, or with tags, fused parts or gaps del 1-694/del 746-750 limits assumed): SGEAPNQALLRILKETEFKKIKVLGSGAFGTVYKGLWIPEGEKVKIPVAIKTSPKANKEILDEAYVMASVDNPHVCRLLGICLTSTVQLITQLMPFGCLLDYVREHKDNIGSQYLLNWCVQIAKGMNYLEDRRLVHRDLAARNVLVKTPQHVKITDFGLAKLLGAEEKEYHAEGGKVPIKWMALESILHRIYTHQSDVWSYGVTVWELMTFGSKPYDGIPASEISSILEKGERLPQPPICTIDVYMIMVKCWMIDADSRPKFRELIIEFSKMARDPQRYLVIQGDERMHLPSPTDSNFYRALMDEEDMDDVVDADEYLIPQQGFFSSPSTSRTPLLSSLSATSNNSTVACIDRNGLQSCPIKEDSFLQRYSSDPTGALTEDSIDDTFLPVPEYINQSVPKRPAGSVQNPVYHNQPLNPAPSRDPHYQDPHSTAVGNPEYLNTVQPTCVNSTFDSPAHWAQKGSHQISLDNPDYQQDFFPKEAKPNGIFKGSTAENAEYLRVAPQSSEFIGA
# experiment-description: Biochemical EGFR inhibition assay, EGFR (d746-750)
# assay-conditions: Caliper mobility shift; 1.0 mM ATP or ATP Km; read-out: Enz EGFR_Exon19-del746-750 IC50
State the answer as a number, implicitly in nM.

Known IC50 results, listed for orientation:
{"columns": ["molecule", "IC50 (nM)"],
 "data": [
  ["COc1cc2ncnc(-c3cn(C)nc3-c3ccccc3)c2cc1OC(=O)N1CCN(C)C[C@H]1C (single isomer, unassigned)", 2.5],
  ["COc1cc2ncnc(-c3cn(CC(F)F)nc3-c3ccccc3)c2cc1NC(=O)c1ccc(C2CC2)nc1", 0.8]
]}

Now look at this one.
Given item "CN1CCC(n2cc(-c3ccc4c(-c5c[nH]nc5-c5ccccc5)ncnc4c3)cn2)CC1" , the value recorded as its IC50 is 1.1

----------
# subject-of-test: EGFR (d746-750) (Homo sapiens (Human), UniProt P00533, DEL746-750)
# experiment-description: Biochemical EGFR inhibition assay, EGFR (d746-750)
# assay-conditions: Caliper mobility shift; 1.0 mM ATP or ATP Km; read-out: Enz EGFR_Exon19-del746-750 IC50
value-kind: IC50 (nM)
Just the number please, in nM, no unit attached.

Would you please look over these solved cases?
{"columns": ["molecule", "subject-of-test", "IC50, nM"],
 "data": [
  ["COc1cc2ncnc(-c3cn(CC(F)F)nc3-c3ccccc3)c2nc1NC(=O)c1ccc(C2CC2)nc1", "EGFR (d746-750) (Homo sapiens (Human), UniProt P00533, DEL746-750)", 1.1],
  ["COc1cc2ncnc(-c3cn(C)nc3-c3ccccc3)c2cc1NC(=O)c1cnc(C)c(F)c1", "EGFR (d746-750) (Homo sapiens (Human), UniProt P00533, DEL746-750)", 0.9],
  ["COc1cc2ncnc(-c3cn(C)nc3-c3ccccc3)c2cc1NC(=O)c1nc(C)ccc1F", "EGFR (d746-750) (Homo sapiens (Human), UniProt P00533, DEL746-750)", 0.7],
  ["COc1cc2ncnc(-c3cn(C)nc3-c3ccccc3)c2nc1NC(=O)c1cn(C(F)(F)F)nc1C", "EGFR (d746-750) (Homo sapiens (Human), UniProt P00533, DEL746-750)", 1.2],
  ["COc1cc2ncnc(-c3cn(C)nc3-c3ccccc3)c2nc1NC(=O)[C@]12COC[C@H]1C2 (single isomer, unassigned)", "EGFR (d746-750) (Homo sapiens (Human), UniProt P00533, DEL746-750)", 0.9],
  ["COc1cc2ncnc(-c3cn(CCN(C)C)nc3-c3ccccc3)c2cc1NC(=O)C12CC(C1)C2", "EGFR (d746-750) (Homo sapiens (Human), UniProt P00533, DEL746-750)", 3.5],
  ["CCOc1cc2ncnc(-c3cn(C)nc3-c3ccccc3)c2cc1NC(=O)[C@@]12C[C@@H]1CN(C)C2 (single isomer, unassigned)", "EGFR (d746-750) (Homo sapiens (Human), UniProt P00533, DEL746-750)", 0.4],
  ["CCn1cc(-c2ncnc3cc(OC(F)F)c(NC(=O)C4CC4)cc23)c(-c2ccccc2)n1", "EGFR (d746-750) (Homo sapiens (Human), UniProt P00533, DEL746-750)", 0.7]
]}

For reference, reported IC50 for COc1cc2ncnc(-c3cn(C)nc3-c3ccccc3)c2nc1NC(=O)[C@@]12COC[C@@H]1C2 (single isomer, unassigned) stands at 0.6

Briefly, IC50 measured for COc1cc2ncnc(-c3cn(CC(F)F)nc3-c3ccccc3)c2cc1[C@@H](C)O (single isomer, unassigned) : 1.2

Lab note: measured IC50 of COc1cc2ncnc(-c3cn(C)nc3-c3ccccc3)c2cc1NC(=O)[C@]12COC[C@H]1C2 (single isomer, unassigned) was 1.2

For this molecule ( "COc1cc2ncnc(-c3cn(C)nc3-c3ccccc3)c2c(F)c1NC(=O)C1CCC1" ), measured IC50 is 2.1

Documented IC50 of "COc1cc2ncnc(-c3cn(C)nc3-c3ccccc3)c2nc1-c1ccc2c(c1)CN(C)C2=O" : 0.5

----------
# subject-of-test: EGFR L858R (Homo sapiens (Human), UniProt P00533, L858R)
# Sequence (P00533 25-1210 L858R): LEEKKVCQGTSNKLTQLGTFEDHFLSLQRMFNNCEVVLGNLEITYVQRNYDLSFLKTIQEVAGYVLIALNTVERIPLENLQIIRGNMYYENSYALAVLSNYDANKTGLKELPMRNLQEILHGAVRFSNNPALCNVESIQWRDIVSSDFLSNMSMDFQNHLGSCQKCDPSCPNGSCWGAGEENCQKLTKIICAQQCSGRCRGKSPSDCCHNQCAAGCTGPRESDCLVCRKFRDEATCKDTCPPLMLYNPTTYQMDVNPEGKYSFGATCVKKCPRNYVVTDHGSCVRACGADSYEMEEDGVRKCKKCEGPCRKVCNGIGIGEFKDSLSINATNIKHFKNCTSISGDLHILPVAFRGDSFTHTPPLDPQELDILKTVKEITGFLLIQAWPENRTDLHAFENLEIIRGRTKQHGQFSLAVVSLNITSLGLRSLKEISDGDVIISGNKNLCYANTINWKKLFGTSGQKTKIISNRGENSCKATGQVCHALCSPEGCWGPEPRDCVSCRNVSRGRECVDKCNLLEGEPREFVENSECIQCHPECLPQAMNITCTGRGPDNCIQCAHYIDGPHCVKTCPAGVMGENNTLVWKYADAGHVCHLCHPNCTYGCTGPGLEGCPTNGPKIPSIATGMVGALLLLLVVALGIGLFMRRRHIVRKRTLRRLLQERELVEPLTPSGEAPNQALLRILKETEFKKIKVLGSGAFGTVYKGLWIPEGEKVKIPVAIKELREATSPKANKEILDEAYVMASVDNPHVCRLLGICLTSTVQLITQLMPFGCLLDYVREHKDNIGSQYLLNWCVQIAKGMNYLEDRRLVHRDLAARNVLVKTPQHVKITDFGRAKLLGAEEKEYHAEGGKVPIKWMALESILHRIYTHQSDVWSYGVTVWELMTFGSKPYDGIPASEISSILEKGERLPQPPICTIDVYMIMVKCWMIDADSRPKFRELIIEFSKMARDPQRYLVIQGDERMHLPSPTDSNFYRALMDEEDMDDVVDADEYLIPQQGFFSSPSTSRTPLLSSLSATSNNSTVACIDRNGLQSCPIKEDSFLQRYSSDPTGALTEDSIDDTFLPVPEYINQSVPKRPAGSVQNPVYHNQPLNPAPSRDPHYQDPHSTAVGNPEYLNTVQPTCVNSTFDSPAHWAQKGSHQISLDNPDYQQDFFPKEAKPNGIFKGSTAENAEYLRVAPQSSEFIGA
# experiment-description: Biochemical EGFR inhibition assay, EGFR L858R
# assay-conditions: Caliper mobility shift; 1.0 mM ATP or ATP Km; read-out: Enz EGFR_L858R IC50
Known IC50 of a selection of compounds
State the result as a value with its unit after it.

{"columns": ["compound", "IC50"],
 "data": [
  ["CCOc1cc2ncnc(-c3cn(C)nc3-c3ccccc3)c2cc1OC1CCOCC1", "1.3 nM"]
]}

Per the record, COc1cc2ncnc(-c3cn(C)nc3-c3ccccc3)c2cc1NC(=O)[C@H](C)F (single isomer, unassigned) has IC50 of 2.2 nM

Kindly note the recorded IC50 for COc1cc2ncnc(-c3cn(C)nc3-c3ccccc3)c2nc1O[C@@H](C)c1nnc(C)s1 (single isomer, unassigned) , which is 6.9 nM

Short answer for COc1cc2ncnc(-c3cn(C)nc3-c3ccccc3F)c2cc1NC(=O)[C@@]12C[C@@H]1CN(C)C2 (single isomer, unassigned) : IC50 was 2.1 nM

response.value for "COc1cc2ncnc(-c3cn(C)nc3-c3ccccc3)c2cc1O[C@H]1CCN(C)C[C@@H]1F" (field: IC50) = 4.3 nM

----------
# subject-of-test: EGFR (d746-750) (Homo sapiens (Human), UniProt P00533, DEL746-750)
# experiment-description: Biochemical EGFR inhibition assay, EGFR (d746-750)
# assay-conditions: Caliper mobility shift; 1.0 mM ATP or ATP Km; read-out: Enz EGFR_Exon19-del746-750 IC50
Reported IC50 values for the following compounds.
Provide only the numeric value, understood in nM.

{"columns": ["compound", "IC50, nM"],
 "data": [
  ["COc1cc2ncnc(-c3cn(C)nc3-c3ccccc3)c2nc1NC(=O)c1ccccc1F", 0.7]
]}

compound COc1cc2ncnc(-c3cn(C)nc3-c3ccccc3)c2cc1NC(=O)N1CCN(C)[C@@H]2C[C@@H]21 (stereo in doubt) , IC50 observed: 2.3

The recorded IC50 for COc1cc2ncnc(-c3cn(C)nc3-c3ccc(F)cc3)c2nc1NC(=O)[C@@]12CN(C)C[C@@H]1C2(F)F (single isomer, unassigned) is 1.1

IC50 for "CN(C)C12CC(C(=O)Nc3nc4c(-c5cn(C)nc5-c5ccc(F)cc5)ncnc4cc3OC(F)F)(C1)C2" is 7.3

----------
# subject-of-test: EGFR L858R (Homo sapiens (Human), UniProt P00533, L858R)
# experiment-description: Biochemical EGFR inhibition assay, EGFR L858R
# assay-conditions: Caliper mobility shift; 1.0 mM ATP or ATP Km; read-out: Enz EGFR_L858R IC50
value-kind: IC50
Write the numeric value and follow it with the unit.

Below: 3 compounds and their reported IC50.
{"columns": ["compound", "subject-of-test", "IC50"],
 "data": [
  ["COc1cc2ncnc(-c3cn(C)nc3-c3ccccc3)c2cc1NC(=O)c1cccc(C)n1", "EGFR L858R (Homo sapiens (Human), UniProt P00533, L858R)", "1.4 nM"],
  ["CCOc1cc2ncnc(-c3cn(C)nc3-c3ccccc3)c2cc1[C@H](C)O (single isomer, unassigned)", "EGFR L858R (Homo sapiens (Human), UniProt P00533, L858R)", "1.7 nM"],
  ["COc1cc2ncnc(-c3cn(C)nc3-c3ccc(F)cc3F)c2cc1N1CCOCC1", "EGFR L858R (Homo sapiens (Human), UniProt P00533, L858R)", "1.7 nM"]
]}

Recorded IC50 for "CCn1cc(-c2ncnc3cc(OC)c(NC(=O)C4(C(F)(F)F)CC4)nc23)c(-c2ccccc2)n1" on EGFR L858R (Homo sapiens (Human), UniProt P00533, L858R) was 1.4 nM

Tested on EGFR L858R (Homo sapiens (Human), UniProt P00533, L858R), the item "COc1cc2ncnc(-c3cn(C)nc3-c3ccccc3)c2nc1O[C@@H](C)c1nnc(C)o1" showed IC50 equal to 5.3 nM

Summary: "CCOc1cc2ncnc(-c3cn(C)nc3-c3ccccc3)c2cc1N1CCOCC1=O" , EGFR L858R (Homo sapiens (Human), UniProt P00533, L858R), IC50 = 109 nM
